test system: HIV-1 NL 4-3; assay: HIV-1 infection of C8166 cells (syncytia formation, p24 ELISA) with HIV-1 NL 4-3; type: cell-based; parameters: key: ++, +, (+), (+)− and − represent decreasing numbers of syncitia formed; ++, +, (+), (+)− and − represent decreasing numbers of syncitia formed; ++, +, (+), (+)− and − represent decreasing numbers of syncitia formed; ++, +, (+), (+)− and − represent decreasing numbers of syncitia formed; ++, +, (+), (+)− and − represent decreasing numbers of syncitia formed; settings: 0.05 μM; Day 7; C8166 cells
Square brackets hold non-standard residues; d marks the D form. Peptide text beside a SMILES is read from it. Ava = NCCCCC(=O)O
recordedMetric: syncitia formed, Day 7

>  <compound>
NCC(=O)N1CCC[C@H]1C(=O)NCC(=O)NCCCCC(=O)O [GPG valeric acid, GPG-NHCH2CH2CH2CH2COOH] (H-GPG[Ava]-OH; N-terminus assumed)

>  <recordedMetric>
syncitia formed, Day 7

>  <recordedValue>
+

$$$$
>  <compound>
N=C(N)NCCC[C@H](NC(=O)CNC(=O)[C@@H]1CCCN1C(=O)CN)C(=O)NCCCCC(=O)O [GPGR valeric acid, GPGR-NHCH2CH2CH2CH2COOH] (H-GPGR[Ava]-OH; N-terminus assumed)

>  <recordedMetric>
syncitia formed, Day 7

>  <recordedValue>
++

$$$$
>  <compound>
C[C@H](NC(=O)[C@H](CCCNC(=N)N)NC(=O)CNC(=O)[C@@H]1CCCN1C(=O)CN)C(=O)NCCCCC(=O)O [GPGRA valeric acid, GPGRA-NHCH2CH2CH2CH2COOH] (H-GPGRA[Ava]-OH; N-terminus assumed)

>  <recordedMetric>
syncitia formed, Day 7

>  <recordedValue>
+

$$$$
>  <compound>
N=C(N)NCCC[C@H](NC(=O)CNC(=O)[C@@H]1CCCN1C(=O)CN)C(=O)O [GPGR, reference compound] (H-GPGR-OH; N-terminus and C-terminus assumed)

>  <recordedMetric>
syncitia formed, Day 7

>  <recordedValue>
++

$$$$

----------
system: HIV-1 NDK; assay: HIV-1 infection of C8166 cells (syncytia formation, p24 ELISA) with HIV-1 NDK; format: cell-based; parameters: key: ++, +, (+), (+)− and − represent decreasing numbers of syncitia formed; ++, +, (+), (+)− and − represent decreasing numbers of syncitia formed; ++, +, (+), (+)− and − represent decreasing numbers of syncitia formed; ++, +, (+), (+)− and − represent decreasing numbers of syncitia formed; ++, +, (+), (+)− and − represent decreasing numbers of syncitia formed; conditions: 1 μM, Day 5
Square brackets hold non-standard residues; d marks the D form. Peptide text beside a SMILES is read from it. Ava = NCCCCC(=O)O
recordedMetric: syncitia formed, Day 5

Illustrative cases are given below, each with its answer.
>  <molecule>
C[C@H](NC(=O)[C@H](CCCNC(=N)N)NC(=O)CNC(=O)[C@@H]1CCCN1C(=O)CN)C(=O)NCCCCC(=O)O [GPGRA valeric acid, GPGRA-NHCH2CH2CH2CH2COOH] (H-GPGRA[Ava]-OH; N-terminus assumed)

>  <syncitia formed, Day 5>
−

$$$$
>  <molecule>
NCC(=O)N1CCC[C@H]1C(=O)NCC(=O)O [GPG, reference compound] (H-Gly-Pro-Gly-OH)

>  <syncitia formed, Day 5>
(+)

$$$$
>  <molecule>
N=C(N)NCCC[C@H](NC(=O)CNC(=O)[C@@H]1CCCN1C(=O)CN)C(=O)O [GPGR, reference compound] (H-GPGR-OH; N-terminus and C-terminus assumed)

>  <syncitia formed, Day 5>
−

$$$$
>  <molecule>
C[C@H](NC(=O)[C@H](CCCNC(=N)N)NC(=O)CNC(=O)[C@@H]1CCCN1C(=O)CN)C(=O)N[C@@H](Cc1ccccc1)C(=O)NCCCCC(=O)O [SPC3 monomer valeric acid, GPGRAF-NHCH2CH2CH2CH2COOH] (H-GPGRAF[Ava]-OH; N-terminus assumed)

>  <syncitia formed, Day 5>
−

$$$$
>  <molecule>
N=C(N)NCCC[C@H](NC(=O)CNC(=O)[C@@H]1CCCN1C(=O)CN)C(=O)NCCCCC(=O)O [GPGR valeric acid, GPGR-NHCH2CH2CH2CH2COOH] (H-GPGR[Ava]-OH; N-terminus assumed)

>  <syncitia formed, Day 5>
−

$$$$

Consider the additional molecule presented here.
q: For the molecule NCC(=O)N1CCC[C@H]1C(=O)NCC(=O)NCCCCC(=O)O [GPG valeric acid, GPG-NHCH2CH2CH2CH2COOH] (H-GPG[Ava]-OH; N-terminus assumed) , what syncitia formed, Day 5 is on record?
a: −
